test system: PfAP2-EXP AP2 domain (GST-tagged); assay: gcPBM binding intensity (ln(normalized median fluorescence intensity)); higher = stronger DNA binding
Over roughly 25,000 sequences, “ln(normalized median fluorescence intensity)” has its median near 8.6; the highest 2% begin near 10. Shown is part of a subset that was picked to be rich in the highest values.
Property: gcPBM binding intensity (ln)
The response must contain the number and no unit.

The measured gcPBM binding intensity (ln) associated with GTTGTAAAAAGAAAATGTACGTAATAAATATATATA [XGTACX_site3081] reads 8.93

The measured gcPBM binding intensity (ln) associated with TGTTATATATGTAATTGTACACTTATACAAAATTAT [XGTACX_site6350] reads 8.52

The measured gcPBM binding intensity (ln) associated with TTGTTGATTGTTATTTATCATTAGATGTAAAATATG [CACACA_negctrl_site927] reads 8.39

The measured gcPBM binding intensity (ln) associated with TTTTGTGATCTTACCACCTTTCATAATATTAATAAA [GTGCAC_negctrl_site360] reads 8.61

Switching to the query record.
The measured gcPBM binding intensity (ln) associated with TTTAAAATTATAAGGATTAAAAAAAAAAAAAATAAA [CACACA_negctrl_site114] reads 8.27

---

Reported gcPBM binding intensity (ln) by item:
test system: PfAP2-EXP AP2 domain (GST-tagged); assay: gcPBM binding intensity (ln(normalized median fluorescence intensity)); higher = stronger DNA binding
Whole data set: some 25,000 sequences, median “ln(normalized median fluorescence intensity)” near 8.6, cut for the highest 2% near 10. This excerpt belongs to a sample that is enriched for the highest values.

Consider the following illustrative entries.
The measured gcPBM binding intensity (ln) associated with ATTTAAAAAAGAAAGGTGCATTTCAATAATGTAAAA [GTGCAC_site9585] reads 8.62

The measured gcPBM binding intensity (ln) associated with ATATATTTTATTCCTATATATATATATATATATATA [GTGCAC_negctrl_site556] reads 10.2

The measured gcPBM binding intensity (ln) associated with TTTGTAATAACATATGCATGTTCAAAAAATAAAATA [TGCATGCA_site817] reads 8.4

The measured gcPBM binding intensity (ln) associated with AAGAAAAAAAAAAAAACACACATATATTTATTTATA [CACACA_site7042] reads 8.06

---
The measured gcPBM binding intensity (ln) associated with TTTTATGATTGACACACACACAAAAAAAAAAAAAAA [CACACA_site7860] reads 8.2

The measured gcPBM binding intensity (ln) associated with TTTTATTCCTATTTATTTATATTTTTGTCTTATATC [CACACA_negctrl_site125] reads 8.8

The measured gcPBM binding intensity (ln) associated with ATAATAAAAATATATACATGCATTATTATATATATA [TGCATGCA_site799] reads 8.97

The measured gcPBM binding intensity (ln) associated with AGTTTATAGTGATATTGTACATATATATATATATAT [XGTACX_site572] reads 10.2

The measured gcPBM binding intensity (ln) associated with ATTTTTTTTATTTTTTCAATATATATATATATATAT [CACACA_negctrl_site1444] reads 10.2

The measured gcPBM binding intensity (ln) associated with CAAGGAACCGGACACACACACATAAATGTATTTATA [CACACA_site4574] reads 8.46

---

test system: PfAP2-EXP AP2 domain (GST-tagged); experiment: gcPBM binding intensity (ln(normalized median fluorescence intensity)); higher = stronger DNA binding
The full ranking holds about 25,000 sequences; the median of “ln(normalized median fluorescence intensity)” is about 8.6, and the highest 2% start at about 10. The full list was thinned out, with the highest values kept by preference.
Answer N if gcPBM binding intensity (ln) is under 9, and Y if it is 9 or more.

The examples below pair each entry with its known result.
Is reported gcPBM binding intensity (ln) greater than or equal to 9 here: TGAAAAAATATAATTTGTACATATCAGGCAAAAATG [XGTACX_site1824]
N

Is reported gcPBM binding intensity (ln) greater than or equal to 9 here: TAAGAAAATATTTATGTATGCATGTCCTAATATTTC [TGCATGCA_site295]
N

Is reported gcPBM binding intensity (ln) greater than or equal to 9 here: ATGTAGATATATATCTGTACGTATATGTAAATATTA [XGTACX_site1516]
N

Is reported gcPBM binding intensity (ln) greater than or equal to 9 here: ATTTCCTTGAATGTTGCATGCTGTATTTTAATTAAA [TGCATGCA_site280]
Y

Is reported gcPBM binding intensity (ln) greater than or equal to 9 here: GCCAATAAAGATGTGGTGCATTATATATATATATAT
Y

Is reported gcPBM binding intensity (ln) greater than or equal to 9 here: TTTAAATAAAATATTACACACTTAGAAAAATATATA [CACACA_site3663]
N

Is reported gcPBM binding intensity (ln) greater than or equal to 9 here: AATAAATTACTATGTACACACATAAGAGTATAAATA [CACACA_site6940]
N

Is reported gcPBM binding intensity (ln) greater than or equal to 9 here: TAAATATATATATAAGTGCATTATATATATATATAA
N

Here's the next entry for you.
Is reported gcPBM binding intensity (ln) greater than or equal to 9 here: TTCAAAAGATATATCGTGCACATATATATGATGAAA
Y

---

tested on: PfAP2-EXP AP2 domain (GST-tagged); assay: gcPBM binding intensity (ln(normalized median fluorescence intensity)); higher = stronger DNA binding
Whole data set: some 25,000 sequences, median “ln(normalized median fluorescence intensity)” near 8.6, cut for the highest 2% near 10. The full list was thinned out, with the highest values kept by preference.
Reported gcPBM binding intensity (ln) by item:
The response must contain the number and no unit.

The measured gcPBM binding intensity (ln) associated with AAAATACAATTTCTAGCACACAAAATATTATTATAA [CACACA_site9056] reads 8.34

The measured gcPBM binding intensity (ln) associated with TATATATATATATATACATGCATACATATACATACA [TGCATGCA_site897] reads 10.2

The measured gcPBM binding intensity (ln) associated with TTAACCTTTATATAATACGTATCATCCTCATATATA [CACACA_negctrl_site86] reads 8.95

The measured gcPBM binding intensity (ln) associated with AATTAATGGTTAAAGGTGCACAATACATATATTACA [GTGCAC_site9943] reads 9.57

The measured gcPBM binding intensity (ln) associated with TGTATGAAATATATTACACACATATATAATATATAT [CACACA_site793] reads 8.36

---
The measured gcPBM binding intensity (ln) associated with GGATTTATTATATATACACACATACAGATATATATA [CACACA_site5222] reads 8.48

The measured gcPBM binding intensity (ln) associated with TAGTACACACAAAATACATGCGGGGTTTAATATTTA [TGCATGCA_site576] reads 8.78

The measured gcPBM binding intensity (ln) associated with CATATAAATAAATATACATGCATACATACATATATA [TGCATGCA_site713] reads 8.51

The measured gcPBM binding intensity (ln) associated with TATGAACACCCAAATACACACACTCAAAAAAAAAAA [CACACA_site5466] reads 8.4

---

Reported gcPBM binding intensity (ln) by item:
tested on: PfAP2-EXP AP2 domain (GST-tagged); assay: gcPBM binding intensity (ln(normalized median fluorescence intensity)); higher = stronger DNA binding
In all, about 25,000 sequences were measured (“ln(normalized median fluorescence intensity)”: median about 8.6, highest 2% from about 10 on). The sample holds the highest values, similar sequences and a random draw of the others, so the mix is not that of the screen.
The response must contain the number and no unit.

The measured gcPBM binding intensity (ln) associated with TTATATTATTTTTATACATGCATTTCTATATATTTT [TGCATGCA_site164] reads 9.2

The measured gcPBM binding intensity (ln) associated with AATCGATAACAATGTAGTACCAGAAAAATAAATATT [XGTACX_site8501] reads 8.99

The measured gcPBM binding intensity (ln) associated with TATTTAATTACATGAACACACATTATGTATTTTTAA [CACACA_site2962] reads 8.3

The measured gcPBM binding intensity (ln) associated with TTATACTATTTTTATACATGCATTTCTATATATTTT [TGCATGCA_site316] reads 9.3

The measured gcPBM binding intensity (ln) associated with TTTTTTTTTTCTCCTGCATGCAGCATTTATATATTA [TGCATGCA_site390] reads 10.3

The reported measurements were obtained from the supplement of paper PMC11417369.
